Cited source: the kinase profiling compilation of Christmann-Franck et al. (2016)

target: PRKACA (human); experiment: radiometric filter-binding kinase assay; details: compound 10.0 µM
measure.name: residual activity
Reply with the number, then its unit.

• O=C(O)c1cc(N=Nc2ccc(S(=O)(=O)Nc3ccccn3)cc2)ccc1O = 114%
• O=C(N[C@@H](COc1ccc2[nH]c(=O)[nH]c2c1)c1ccccc1)c1cccn(Cc2ccc(F)c(F)c2)c1=O = 111%
• c1ccc2c(-c3cnn4cc(-c5ccc(N6CCNCC6)cc5)cnc34)ccnc2c1 = 94%
• O=C(O)c1ccc(-c2c[nH]c3ncc(-c4ccccc4)cc23)cc1C1CCCC1 = 97%
• CC(C)(C#N)c1ccc(N2C(=O)OCc3cnc4ccc(-c5cnc6ccccc6c5)cc4c32)cc1 = 92%

May I ask what residual activity has been recorded for Cc1ccc(-c2ccc3c(ccc4sc5c(c43)NC[C@@H](C)NC5=O)n2)cn1 ?
108%

Again, but for O=C(NOC[C@H](O)CO)c1ccc(F)c(F)c1Nc1ccc(I)cc1Cl
97%

Again, but for Cc1cccc(Nc2nn(C)c3ncnc(N)c23)c1
98%

Again, but for Oc1ccc2ccccc2c1SSc1c(O)ccc2ccccc12
100%

Again, but for N#Cc1c(C2CCNCC2)cc(-c2c(O)cccc2OCC2CC2)nc1N
95%

---

target: DYRK3 (human); experiment: radiometric filter-binding kinase assay; conditions: compound 1.0 µM
measure.name: residual activity
Reply with the number, then its unit.

Recorded residual activity, per entry:
- O=C(Nc1cccnc1)c1cc(-c2ccnc(F)c2)ccc1OCc1ccccc1: 101%
- Cc1cc(NC(=O)c2cccc(NC(=O)/C=C/CN(C)C)c2)ccc1Nc1nccc(-c2cccnc2)n1: 80%
- COc1ccc(-n2ncc3cnc(Nc4cc(OC)c(OC)c(OCCCN5CCN(C)CC5)c4)nc32)cc1: 10%
- Cc1ccc(Sc2cnc(Nc3cccc(Br)n3)s2)cc1C(=O)N1CCN(C(=O)CN)CC1: 78%
- NC(=O)Nc1ccc2c(c1)/C(=C/c1cc(-c3cccnc3)c[nH]1)C(=O)N2: 4%
- NC(=O)c1cc2c(-c3cccc(-c4ccccc4)c3)cnc(N)c2s1: 76%

May I ask what residual activity has been recorded for Cc1ccc(=O)n(-c2ccccc2)c1 ?
103%

Again, but for O=C(NCCCNc1nc(Nc2cccc(CN3CCOCC3)c2)ncc1C1CC1)C1CCC1
101%

Again, but for CNc1nc(-c2ccc3c(N)n[nH]c3c2)cc(N2C[C@@H](C(=O)NC3CCCCC3)CC[C@H]2C)n1
94%

Again, but for O=C(Nc1ccccc1-c1cn2c(CN3CCNCC3)csc2n1)c1cnc2ccccc2n1
91%

Again, but for C[C@H]1CCCC(=O)CCC/C=C/c2cc(O)cc(O)c2C(=O)O1
100%

---

Here the recorded residual activity is given for each entry.
target: MAPK12 (human) (UniProt P53778); test: radiometric filter-binding kinase assay; conditions: compound 10.0 µM
Sequence (P53778 whole entry, looked up): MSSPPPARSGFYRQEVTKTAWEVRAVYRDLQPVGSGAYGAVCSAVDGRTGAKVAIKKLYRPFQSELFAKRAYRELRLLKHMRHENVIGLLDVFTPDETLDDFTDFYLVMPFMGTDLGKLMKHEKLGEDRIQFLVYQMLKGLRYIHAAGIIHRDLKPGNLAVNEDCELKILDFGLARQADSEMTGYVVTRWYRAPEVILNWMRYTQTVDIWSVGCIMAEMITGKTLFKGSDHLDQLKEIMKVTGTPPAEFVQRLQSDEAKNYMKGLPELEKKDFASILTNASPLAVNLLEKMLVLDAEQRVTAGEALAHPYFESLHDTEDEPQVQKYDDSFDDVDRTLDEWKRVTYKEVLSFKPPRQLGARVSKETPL
Reply with the number, then its unit.

Recorded residual activity, per entry:
- Cc1cc(SCc2sc(-c3ccc(C(F)(F)F)cc3)nc2C)ccc1OCC(=O)O: 106%
- COc1cc(C(=O)N2CCOCC2)c(F)cc1Nc1ncc(C(F)(F)F)c(NC2CC2)n1: 96%
- Cc1ccc(=O)n(-c2ccccc2)c1: 96%

From here, focus on the item given below.
May I ask what residual activity has been recorded for N#Cc1c(O)c2c(-c3ccc(-c4ccccc4O)cc3)csc2[nH]c1=O ?
95%

---

target: GCK (human); experiment: radiometric filter-binding kinase assay; conditions: compound 0.1 µM
measure.name: residual activity (%)
Reply numerically in %, unit not repeated.

Recorded residual activity, per entry:
- COc1cc(O)c2c(c1)/C=C/C[C@H](O)[C@H](O)C(=O)/C=C\C[C@H](C)OC2=O: 121
- CNC(=O)C1[C@H]2O[C@@](C)([C@@H]1N)n1c3ccccc3c3c4c(c5c6ccccc6n2c5c31)C(=O)NC4 (some centres undefined): 4
- COc1ccc(-n2ncc3cnc(Nc4cc(OC)c(OC)c(OCCCN5CCN(C)CC5)c4)nc32)cc1: 29
- CCn1c(-c2nonc2N)nc2cncc(CNC3CCNCC3)c21: 91
- O=C(O)c1ccc(-c2c[nH]c3ncc(-c4ccccc4)cc23)cc1C1CCCC1: 8
- Cc1ccc(-c2ccc3c(ccc4sc5c(c43)NC[C@@H](C)NC5=O)n2)cn1: 109
- CNc1nc(-c2ccc3c(N)n[nH]c3c2)cc(N2C[C@@H](C(=O)NC3CCCCC3)CC[C@H]2C)n1: 116
- NC(=O)c1cc(-c2ccnc(NC3CCCCC3)c2)nc(N2CCNCC2)c1: 41

Param readout= residual activity; system= GCK (human); entry= c1ccc2c(-c3cnn4cc(-c5ccc(N6CCNCC6)cc5)cnc34)ccnc2c1 ; returns value.
37

---

molecular target: DAPK1 (human); assay: radiometric filter-binding kinase assay; conditions: compound 0.1 µM
measure.name: residual activity (%)
Reply numerically in %, unit not repeated.

Recorded residual activity, per entry:
- c1ccc2c(-c3cnn4cc(-c5ccc(N6CCNCC6)cc5)cnc34)ccnc2c1: 89
- COc1ccc(-n2ncc3cnc(Nc4cc(OC)c(OC)c(OCCCN5CCN(C)CC5)c4)nc32)cc1: 51

From here, focus on the item given below.
May I ask what residual activity has been recorded for Cc1cc(NC(=O)c2cccc(NC(=O)/C=C/CN(C)C)c2)ccc1Nc1nccc(-c2cccnc2)n1 ?
102

---

molecular target: RPS6KA5 KD1 KD2 (human) (UniProt O75582); experiment: radiometric filter-binding kinase assay; conditions: compound 1.0 µM
Sequence (O75582 whole entry, looked up): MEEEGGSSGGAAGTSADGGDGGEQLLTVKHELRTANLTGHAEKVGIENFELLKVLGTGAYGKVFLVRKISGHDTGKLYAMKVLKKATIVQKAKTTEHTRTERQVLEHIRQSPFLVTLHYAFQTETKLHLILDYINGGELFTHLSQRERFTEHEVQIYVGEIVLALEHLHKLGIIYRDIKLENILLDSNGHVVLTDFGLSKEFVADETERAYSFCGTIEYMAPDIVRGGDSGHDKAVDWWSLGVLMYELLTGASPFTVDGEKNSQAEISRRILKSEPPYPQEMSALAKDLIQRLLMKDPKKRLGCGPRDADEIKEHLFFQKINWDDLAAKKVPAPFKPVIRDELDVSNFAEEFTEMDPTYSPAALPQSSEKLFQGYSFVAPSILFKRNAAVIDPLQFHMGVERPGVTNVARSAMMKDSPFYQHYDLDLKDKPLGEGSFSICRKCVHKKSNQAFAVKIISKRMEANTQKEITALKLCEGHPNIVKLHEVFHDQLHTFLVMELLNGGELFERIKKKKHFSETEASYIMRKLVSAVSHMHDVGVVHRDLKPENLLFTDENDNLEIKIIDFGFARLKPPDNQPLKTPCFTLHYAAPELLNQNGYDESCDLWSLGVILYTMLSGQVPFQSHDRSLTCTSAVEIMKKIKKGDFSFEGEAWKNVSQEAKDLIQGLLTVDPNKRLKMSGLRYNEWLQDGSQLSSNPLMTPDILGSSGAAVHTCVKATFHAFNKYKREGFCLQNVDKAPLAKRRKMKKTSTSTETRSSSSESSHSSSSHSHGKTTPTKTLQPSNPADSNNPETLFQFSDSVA
measure.name: residual activity (%)
Reply numerically in %, unit not repeated.

Recorded residual activity, per entry:
- NC(=O)c1cc2c(-c3cccc(-c4ccccc4)c3)cnc(N)c2s1: 97
- CC(C)(C#N)c1ccc(N2C(=O)OCc3cnc4ccc(-c5cnc6ccccc6c5)cc4c32)cc1: 74
- NCC(=O)Nc1ccc(-n2nc(C(F)(F)F)cc2-c2ccc3c(ccc4ccccc43)c2)cc1: 110

May I ask what residual activity has been recorded for Cc1ccc(=O)n(-c2ccccc2)c1 ?
98

Again, but for O=C(NCCCNc1nc(Nc2cccc(CN3CCOCC3)c2)ncc1C1CC1)C1CCC1
68

Again, but for O=C(Nc1ccccc1-c1cn2c(CN3CCNCC3)csc2n1)c1cnc2ccccc2n1
90

Again, but for NC(=O)Nc1ccc2c(c1)/C(=C/c1cc(-c3cccnc3)c[nH]1)C(=O)N2
73

Again, but for CCCC(CCC)C(=O)O
94

Again, but for COc1cc(O)c2c(c1)[C@H]1OC1C[C@H](O)[C@H](O)C(=O)/C=C\C[C@H](C)OC2=O (stereo not given in full)
104

---

target: MAPKAPK2 (human); assay: radiometric filter-binding kinase assay; settings: compound 0.1 µM
measure.name: residual activity (%)
Reply numerically in %, unit not repeated.

* c1ccc2c(-c3cnn4cc(-c5ccc(N6CCNCC6)cc5)cnc34)ccnc2c1 | 81
* CNc1nc(-c2ccc3c(N)n[nH]c3c2)cc(N2C[C@@H](C(=O)NC3CCCCC3)CC[C@H]2C)n1 | 111
* Cc1ccc(Sc2cnc(Nc3cccc(Br)n3)s2)cc1C(=O)N1CCN(C(=O)CN)CC1 | 98
* NC1(c2ccc(-c3nc4ccn5c(=O)[nH]nc5c4cc3-c3ccccc3)cc2)CCC1 | 99
* CN(C)C/C=C/C(=O)Nc1cccc(C(=O)Nc2ccc(Nc3nccc(-c4cccnc4)n3)cc2)c1 | 91

May I ask what residual activity has been recorded for Cc1cccc(-c2nn(C(=S)Nc3ccccc3)cc2-c2ccnc3ccccc23)n1 ?
117

---

Here the recorded residual activity is given for each entry.
biological target: UniProtKB O75716; assay: radiometric filter-binding kinase assay; details: compound 0.1 µM
Sequence (O75716 whole entry, looked up): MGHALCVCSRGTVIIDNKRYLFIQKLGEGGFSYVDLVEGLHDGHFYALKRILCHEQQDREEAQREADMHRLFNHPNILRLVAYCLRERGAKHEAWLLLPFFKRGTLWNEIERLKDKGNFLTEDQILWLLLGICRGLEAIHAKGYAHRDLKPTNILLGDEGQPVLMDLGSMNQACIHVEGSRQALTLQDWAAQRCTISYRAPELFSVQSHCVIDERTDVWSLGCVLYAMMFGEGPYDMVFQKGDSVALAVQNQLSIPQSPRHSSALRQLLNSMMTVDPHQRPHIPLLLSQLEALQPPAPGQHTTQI
Reply numerically in %, unit not repeated.

Recorded residual activity, per entry:
* c1ccc2c(-c3cnn4cc(-c5ccc(N6CCNCC6)cc5)cnc34)ccnc2c1 | 97
* NC(=O)c1cc(-c2ccnc(NC3CCCCC3)c2)nc(N2CCNCC2)c1 | 100
* Cc1cc(NC(=O)c2cccc(NC(=O)/C=C/CN(C)C)c2)ccc1Nc1nccc(-c2cccnc2)n1 | 110

From here, focus on the item given below.
May I ask what residual activity has been recorded for CCCCCc1ccc(/C=C/[C@H](O)[C@@H](CO)NC)cc1 ?
104

---

Here the recorded residual activity is given for each entry.
molecular target: PAK4 (human) (UniProt O96013); assay: radiometric filter-binding kinase assay; conditions: compound 1.0 µM
Sequence (O96013 whole entry, looked up): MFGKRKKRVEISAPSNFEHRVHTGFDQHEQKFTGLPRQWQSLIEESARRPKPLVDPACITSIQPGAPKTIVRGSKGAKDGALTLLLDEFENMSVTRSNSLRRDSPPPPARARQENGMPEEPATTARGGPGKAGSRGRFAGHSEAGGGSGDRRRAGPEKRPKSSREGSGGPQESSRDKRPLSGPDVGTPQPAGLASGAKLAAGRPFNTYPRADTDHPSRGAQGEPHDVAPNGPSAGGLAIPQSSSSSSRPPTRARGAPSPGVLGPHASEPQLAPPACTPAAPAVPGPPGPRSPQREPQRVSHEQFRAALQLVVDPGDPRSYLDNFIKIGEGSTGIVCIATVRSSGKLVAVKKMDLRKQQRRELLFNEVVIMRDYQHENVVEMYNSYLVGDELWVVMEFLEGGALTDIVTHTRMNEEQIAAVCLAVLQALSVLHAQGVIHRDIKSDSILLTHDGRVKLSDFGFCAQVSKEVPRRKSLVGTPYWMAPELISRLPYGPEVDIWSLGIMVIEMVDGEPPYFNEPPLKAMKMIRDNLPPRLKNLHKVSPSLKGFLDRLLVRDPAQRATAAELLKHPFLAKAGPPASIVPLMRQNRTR
Reply numerically in %, unit not repeated.

• Cc1cccc(-c2nn(C(=S)Nc3ccccc3)cc2-c2ccnc3ccccc23)n1 = 93
• Cc1cc(SCc2sc(-c3ccc(C(F)(F)F)cc3)nc2C)ccc1OCC(=O)O = 87
• CC(C)(C#N)c1ccc(N2C(=O)OCc3cnc4ccc(-c5cnc6ccccc6c5)cc4c32)cc1 = 94
• NC1(c2ccc(-c3nc4ccn5c(=O)[nH]nc5c4cc3-c3ccccc3)cc2)CCC1 = 78

From here, focus on the item given below.
May I ask what residual activity has been recorded for NC(=O)c1c(NC(=O)C2CC2)sc2c1CCCC2 ?
93
